Assay: Study B: multiple oral dose pharmacokinetics, 10 days
Assay type: in vivo, human
Conditions: human, in vivo, oral, 50 mg, 50 mg BID, Day 10
measured_parameter: half-life (h)
State just the number; it will be interpreted in h.

Name the recorded half-life for COc1ccccc1[C@H](Cn1c(=O)n(C(C)(C)C(=O)O)c(=O)c2c(C)c(-c3ncco3)sc21)OC1CCOCC1 .
10.3

---

Test: Study B: multiple oral dose pharmacokinetics, 10 days
Assay type: in vivo, human
Details: human, in vivo, oral, 50 mg, 50 mg BID, Day 10 steady state
measured_parameter: Cmax (ng/mL)
State just the number; it will be interpreted in ng/mL.

Name the recorded Cmax for COc1ccccc1[C@H](Cn1c(=O)n(C(C)(C)C(=O)O)c(=O)c2c(C)c(-c3ncco3)sc21)OC1CCOCC1 .
49

---

Assay: Study B: multiple oral dose pharmacokinetics, 10 days
Format: in vivo, human
Details: human, in vivo, oral, 200 mg, 200 mg QD, Day 10; read-out: AUC0-12
measured_parameter: AUC(0-t) (ng·h/mL)
State just the number; it will be interpreted in ng·h/mL.

Name the recorded AUC(0-t) for COc1ccccc1[C@H](Cn1c(=O)n(C(C)(C)C(=O)O)c(=O)c2c(C)c(-c3ncco3)sc21)OC1CCOCC1 [Compound 1] .
1220

---

Test: Study B: multiple oral dose pharmacokinetics, 10 days
Type: in vivo, human
Conditions: human, in vivo, oral, 50 mg, 50 mg BID, Day 1
measured_parameter: half-life (h)
State just the number; it will be interpreted in h.

Name the recorded half-life for COc1ccccc1[C@H](Cn1c(=O)n(C(C)(C)C(=O)O)c(=O)c2c(C)c(-c3ncco3)sc21)OC1CCOCC1 .
3.5

---

Assay: Study B: multiple oral dose pharmacokinetics, 10 days
Format: in vivo, human
Conditions: human, in vivo, oral, 100 mg, 100 mg QD, Day 1; read-out: AUC0-t
measured_parameter: AUC(0-t) (ng·h/mL)
State just the number; it will be interpreted in ng·h/mL.

Name the recorded AUC(0-t) for COc1ccccc1[C@H](Cn1c(=O)n(C(C)(C)C(=O)O)c(=O)c2c(C)c(-c3ncco3)sc21)OC1CCOCC1 [Compound 1] .
268

---

Assay: Study B: multiple oral dose pharmacokinetics, 10 days
Format: in vivo, human
Details: human, in vivo, oral, 100 mg, 100 mg QD, Day 1
measured_parameter: half-life
Note to self: number, then unit, no commentary.

Name the recorded half-life for COc1ccccc1[C@H](Cn1c(=O)n(C(C)(C)C(=O)O)c(=O)c2c(C)c(-c3ncco3)sc21)OC1CCOCC1 .
4.3 h

---

Experiment: Study A: single oral dose pharmacokinetics in healthy subjects
Format: in vivo, human
Details: human, plasma; single oral dose 500 mg, fasted, mean ± SD
measured_parameter: half-life (h)
State just the number; it will be interpreted in h.

Name the recorded half-life for COc1ccccc1[C@H](Cn1c(=O)n(C(C)(C)C(=O)O)c(=O)c2c(C)c(-c3ncco3)sc21)OC1CCOCC1 .
10.2

---

Assay: Study B: multiple oral dose pharmacokinetics, 10 days
Format: in vivo, human
Conditions: human, in vivo, oral, 50 mg, 50 mg BID, Day 1
measured_parameter: Cmax (ng/mL)
State just the number; it will be interpreted in ng/mL.

Name the recorded Cmax for COc1ccccc1[C@H](Cn1c(=O)n(C(C)(C)C(=O)O)c(=O)c2c(C)c(-c3ncco3)sc21)OC1CCOCC1 .
41
